# experimental.target: Broad substrate specificity ATP-binding cassette transporter ABCG2 (Homo sapiens, UniProt Q9UNQ0)
# Sequence (Q9UNQ0 whole entry): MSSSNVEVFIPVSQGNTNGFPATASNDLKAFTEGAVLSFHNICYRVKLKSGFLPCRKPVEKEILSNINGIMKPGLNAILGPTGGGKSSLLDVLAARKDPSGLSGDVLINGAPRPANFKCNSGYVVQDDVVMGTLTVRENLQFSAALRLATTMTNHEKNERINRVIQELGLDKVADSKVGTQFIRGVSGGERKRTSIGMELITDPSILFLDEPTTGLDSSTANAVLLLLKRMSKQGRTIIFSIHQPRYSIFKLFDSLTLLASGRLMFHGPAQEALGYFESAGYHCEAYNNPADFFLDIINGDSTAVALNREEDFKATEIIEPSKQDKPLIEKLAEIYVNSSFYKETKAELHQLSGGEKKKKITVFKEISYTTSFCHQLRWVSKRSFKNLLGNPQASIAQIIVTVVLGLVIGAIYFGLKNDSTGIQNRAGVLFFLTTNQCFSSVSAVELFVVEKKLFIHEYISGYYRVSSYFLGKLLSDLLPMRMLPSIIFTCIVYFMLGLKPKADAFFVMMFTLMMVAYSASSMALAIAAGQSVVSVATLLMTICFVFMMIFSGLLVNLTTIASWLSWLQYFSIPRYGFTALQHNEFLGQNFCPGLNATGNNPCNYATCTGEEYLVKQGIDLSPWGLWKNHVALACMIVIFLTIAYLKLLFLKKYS
# experimental.protocol: TP_TRANSPORTER: inhibition of MTX uptake in membrane vesicle from BCRP-expressing Sf9 cell
# Type: functional, cell membranes
# condition.set: read-out: IC50

compound | IC50, µM
COc1ccnc(C[S+]([O-])c2nc3ccc(OC(F)F)cc3[nH]2)c1OC (stereo unspecified) | 10
